assay: Oral pharmacokinetic study in rats; format: in vivo; conditions: SD, rat, plasma, 10 mg/kg
measurement.kind: AUC(0-inf) (ng·h/mL)
Quick reminder: number only, in ng·h/mL, skip the unit.

I would be grateful if you could share the reported AUC(0-inf) for O=C(c1cccc(Nc2c(NC3C[C@@H]4CC[C@H]3C4)c(=O)c2=O)c1O)N1CCCC1 (stereo partly shown) .
8940

---

assay: Oral pharmacokinetic study in rats; type: in vivo; details: SD, rat, plasma, 10 mg/kg
measurement.kind: Tmax (min)
Dear colleague, please return just the value in min, with no unit written.

Endpoint output: Tmax of O=C(c1cccc(Nc2c(NC3C[C@@H]4CC[C@H]3C4)c(=O)c2=O)c1O)N1CCCC1 (stereo partly shown) . Value?
19.8

---

target: CXCR2 (Homo sapiens, UniProt P25025); test: CXCR2 antagonistic activity assay
Sequence (P25025 whole entry): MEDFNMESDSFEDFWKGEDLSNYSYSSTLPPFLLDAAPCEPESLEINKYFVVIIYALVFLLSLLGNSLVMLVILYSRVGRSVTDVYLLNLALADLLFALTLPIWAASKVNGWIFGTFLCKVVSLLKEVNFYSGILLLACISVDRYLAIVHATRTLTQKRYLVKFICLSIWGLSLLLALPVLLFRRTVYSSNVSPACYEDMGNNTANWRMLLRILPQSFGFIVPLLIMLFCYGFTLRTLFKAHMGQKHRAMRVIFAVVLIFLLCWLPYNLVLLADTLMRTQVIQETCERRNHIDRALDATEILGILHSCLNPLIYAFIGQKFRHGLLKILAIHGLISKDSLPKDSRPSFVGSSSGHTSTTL
measurement.kind: pIC50
Scale: pIC50 equals -log10([C]), with [C] in mol/L.

CC(C)(C)OC(=O)N1CCN(C(=O)c2cccc(Nc3c(NC4C[C@@H]5CC[C@H]4C5)c(=O)c3=O)c2O)CC1 (some centres unmarked) [2g]	6.38
CN(C)C(=O)c1cccc(Nc2c(NC3C[C@H]4C[C@@H]3C3CCC[C@@H]34)c(=O)c2=O)c1O (some centres unmarked) [1d]	6.00
N#Cc1ccc(Nc2c(NC3C[C@@H]4CC[C@H]3C4)c(=O)c2=O)c(O)c1 (some centres unmarked) [2b]	6.35
CC(C)S(=O)(=O)c1c(Cl)ccc(Nc2c(NC3C[C@@H]4CC[C@H]3C4)c(=O)c2=O)c1O (some centres unmarked) [2c]	6.92
O=C(c1cccc(Nc2c(NC3C[C@@H]4CC[C@H]3C4)c(=O)c2=O)c1O)N1CCCCC1 (some centres unmarked) [2f]	6.23
CN(C)C(=O)c1cccc(Nc2c(NC3C[C@@H]4CC[C@H]3C4)c(=O)c2=O)c1O (some centres unmarked) [1a]	7.21

What value of pIC50 has been reported for the following compound? CN(C)C(=O)c1cccc(Nc2c(NCC3C[C@H]4CC[C@@H]3C4)c(=O)c2=O)c1O (some centres unmarked) [1f]
4.63

Now consider Cl.O=C(c1cccc(Nc2c(NC3C[C@@H]4CC[C@H]3C4)c(=O)c2=O)c1O)N1CCNCC1 (some centres unmarked) [2h] .
6.28
